System: HCV genotype 1b replicon NS5A R30H
Assay overview: Transient HCV 1b replicon, NS5A mutant R30H
Format: cell-based
Measurement setup: Hepatitis C virus, read-out: EC50 R30H
Kindly state pEC50 for each of the entries shown.
Friendly reminder that pEC50 comes from taking -log10 of the concentration in mol/L.

I have this compound here, `COC(=O)N[C@H](C(=O)N1CCC[C@H]1c1ncc(-c2ccc(-c3ccc4nc([C@@H]5CCCN5C(=O)[C@@H](NC(=O)OC)C(C)C)[nH]c4c3)cc2)[nH]1)C(C)C` , and I need its recorded pEC50.
9.22

What value of pEC50 has been reported for the following compound? `COC(=O)N[C@H](C(=O)N1CCC[C@H]1c1nc2ccc(-c3ccc4cc(-c5cnc([C@@H]6CCCN6C(=O)[C@@H](NC(=O)OC)[C@@H](C)OC)[nH]5)ccc4c3)cc2[nH]1)C(C)C`
10.30

Record request: pEC50 value, item `CC[C@H](C)[C@H](NC(=O)OC)C(=O)N1CCC[C@H]1c1nc2cc(-c3ccc4cc(-c5cnc([C@@H]6CCCN6C(=O)[C@@H](NC(=O)OC)[C@@H](C)OC)[nH]5)ccc4c3)ccc2[nH]1`
10.41

So what's the measured pEC50 for this one? `COC(=O)N[C@H](C(=O)N1CCC[C@H]1c1ncc(-c2ccc(-c3ccc4nc([C@@H]5CCCN5C(=O)[C@@H](NC(=O)OC)[C@@H](C)OC)[nH]c4c3)cc2)[nH]1)[C@@H](C)OC`
8.57

State the recorded pEC50 for this entry: `COC(=O)N[C@H](C(=O)N1CCC[C@H]1c1ncc(-c2ccc3cc(-c4ccc5nc([C@@H]6CCCN6C(=O)[C@@H](NC(=O)OC)[C@@H](C)OC)[nH]c5c4)ccc3c2)[nH]1)[C@@H](C)OC`
10.25

Can you share its pEC50? I mean this compound: `COC(=O)N[C@H](C(=O)N1CCC[C@H]1c1ncc(-c2ccc3cc(-c4ccc5nc([C@@H]6CCCN6C(=O)[C@@H](NC(=O)OC)C(C)C)[nH]c5c4)ccc3c2)[nH]1)C(C)C`
10.14

These data points were gathered from patent US9427428B2.
